These entries and their values trace back to PubChem BioAssay AID248.

Tested on: L1210 leukemia ip in BDF1 mice, survival T/C
assay.method.text: NCI In Vivo Anticancer Drug Screen. Data for tumor model L1210 Leukemia (intraperitoneal) in B6D2F1 (BDF1) mice
measurement.context: endpoint: mean survival time; dose: 100.0 mg/kg/injection; schedule: Q01DX009 (ip); vehicle: saline
Procedure: The antitumor activity of compounds was measured in mice bearing transplantable tumors. Survival or tumor size were measured and the results are expressed as the measurement made in the treated group (T) divided by the measurement made in the vehicle treated control group (C). The tumor model used in this assay is L1210 Leukemia (intraperitoneal) in B6D2F1 (BDF1) mice
Inconclusive results and toxic doses are left out. Cut-off read from the data, not from the text of the source: active = T/C of 150% or more; inactive = T/C below 125%.
# output must be one of Yes = active, No = inactive

CCOC(=O)N(c1ccccc1)C1OCC(OC(C)=O)C(OC(C)=O)C1OC(C)=O (stereo unspecified)    No

Check the results log: what was the call for `C/C=[N+](/[O-])CC` ?
No

Check the results log: what was the call for `O=C(O)CNCc1ccc(F)cc1` ?
No

Check the results log: what was the call for `[O-][n+]1ccc(Cl)cc1` ?
No

Check the results log: what was the call for CCOC1=C(C)C(=O)C1C (stereo unspecified) ?
No

Check the results log: what was the call for `CCOC(=O)CCN1CCOCC1` ?
No

Check the results log: what was the call for COC1=CCC2C(=O)OC(=O)C2C1 (stereo unspecified) ?
No

Check the results log: what was the call for `Cc1cc(NC(=O)Nc2ccc(C3=NCCCN3)cc2)ccc1NC(=O)Nc1ccc(C2=NCCCN2)cc1` ?
Yes

Check the results log: what was the call for OC(C#CC(O)c1ccccc1)c1ccccc1 (stereo unspecified) ?
No

Check the results log: what was the call for `N#CCCOCC(COCCC#N)OCCC#N` ?
No

Check the results log: what was the call for `CS(=O)(=O)c1ccc(C(=N)N)cc1` ?
No

Check the results log: what was the call for `O=[N+]([O-])c1ccc(-[n+]2ccccc2)c([N+](=O)[O-])c1` ?
No

Check the results log: what was the call for COc1ccc2c3c(ccc2c1)C(=O)C(C)(C#N)CC3 (stereo unspecified) ?
No

Check the results log: what was the call for `CN(C)CCN(C)CCN(C)CCN(C)C` ?
No

---

Test system: L1210 leukemia ip in BDF1 mice, survival T/C
assay.method.text: NCI In Vivo Anticancer Drug Screen. Data for tumor model L1210 Leukemia (intraperitoneal) in B6D2F1 (BDF1) mice
measurement.context: endpoint: mean survival time; dose: 100.0 mg/kg/injection; schedule: Q01DX001 (ip); vehicle: saline with Tween-80; higher = longer survival
Toxic doses and inconclusive results are not listed.
Consider the following molecules; for each one, report its T/C.

Here are 2 molecules together with their reported answers.
O=c1ccsc(=S)[nH]1    101 % of control
O=C(O)c1ccc(N=Cc2cccc([N+](=O)[O-])c2)cc1    106 % of control

Look up T/C for this molecule: `O=C(NC(=S)Nc1cccc(C(F)(F)F)c1)c1cc([N+](=O)[O-])cc([N+](=O)[O-])c1`
93 % of control

---

Test system: L1210 leukemia ip in BDF1 mice, survival T/C
assay.method.text: NCI In Vivo Anticancer Drug Screen. Data for tumor model L1210 Leukemia (intraperitoneal) in B6D2F1 (BDF1) mice
measurement.context: endpoint: mean survival time; dose: 150.0 mg/kg/injection; schedule: Q04DX003 (ip); vehicle: saline; higher = longer survival
Inconclusive results and toxic doses are left out.
metric: T/C

CCCCCCCC/C=C\CCCCCCCC(=O)NCCOC    98 % of control
CC12C(=O)OC3CCC1CC32 (stereo not given)    94 % of control
C1CN(C[C@H]2COC[C@@H](CN3CCOCC3)O2)CCO1    106 % of control
C=CCC(C)(C)/C=N/N    98 % of control

Okay, next one:
Observed T/C on L1210 leukemia ip in BDF1 mice, survival T/C for `NCCCNc1ccc([N+](=O)[O-])cc1` , please.
101 % of control
